Cited source: patent US20250325517A1

Assay: Phase 1 crossover PK study: oral solution fed/fasted vs IV infusion in healthy subjects
Assay type: in vivo, human
Details: human, plasma, po, 3.3 mg/kg, oral 3.3 mg/kg fasted state, human plasma; read-out: t1/2 Median (converted)
measure: half-life (h)
Number in h, nothing else.

(Q) In one line, give reported half-life of the entry Cn1cc(C2=C(c3coc4ccc(F)cc34)C(=O)NC2=O)c2cc3c(cc21)OCO3 [elraglusib] .
(A) 18.2

* * *

Assay: Phase 1 crossover PK study: oral solution fed/fasted vs IV infusion in healthy subjects
Format: in vivo, human
Settings: human, plasma, po, 3.3 mg/kg, human, 3.3 mg/kg oral solution, fed state; read-out: mean Cmax (arithmetic mean)
measure: Cmax
Hey, just the number and the unit after it is fine.

(Q) Tell us which Cmax value is on record for Cn1cc(C2=C(c3coc4ccc(F)cc34)C(=O)NC2=O)c2cc3c(cc21)OCO3
(A) 592 ng/mL

* * *

Assay: Solubility of elraglusib in simulated intestinal fluid
Assay type: physicochemical
Conditions: thermodynamic from solid; FaSSIF, initial pH 6.5, [NaTC] 3 mM, 2 hour; read-out: Average Concentration, 2 hour
measure: solubility thermodynamic at 2 h (µg/mL)
Field: numeric (µg/mL). Do not append units.

(Q) Provide only the value of recorded solubility thermodynamic at 2 h for Cn1cc(C2=C(c3coc4ccc(F)cc34)C(=O)NC2=O)c2cc3c(cc21)OCO3
(A) 5.2

* * *

Assay: Phase 1 crossover PK study: oral solution fed/fasted vs IV infusion in healthy subjects
Type: in vivo, human
Conditions: human, plasma, po, 3.3 mg/kg, oral 3.3 mg/kg fasted state, human plasma; read-out: CL Median (converted)
measure: CL/F (L/h/kg)
Express the result in L/h/kg but write the number alone.

(Q) Tell me CL/F reported for Cn1cc(C2=C(c3coc4ccc(F)cc34)C(=O)NC2=O)c2cc3c(cc21)OCO3 [elraglusib]
(A) 2.07

* * *

Experiment: Quantitative solubility by HPLC in organic solvents and surfactants
Type: physicochemical
Details: organic solvent or mixture, thermodynamic from solid; DCM:Acetone (5:1), no surfactant; read-out: Solubility (n = 2) by HPLC
measure: solubility (mg/mL)
Give the quantity in mg/mL, number only.

(Q) Kindly indicate its recorded solubility. Item: Cn1cc(C2=C(c3coc4ccc(F)cc34)C(=O)NC2=O)c2cc3c(cc21)OCO3 [elraglusib]
(A) 24.5

* * *

Assay: Phase 1 crossover PK study: oral solution fed/fasted vs IV infusion in healthy subjects
Type: in vivo, human
Conditions: human, plasma, iv, 3.3 mg/kg, IV infusion 3.3 mg/kg, human plasma; read-out: AUC96 Arithmetic Mean
measure: AUC (ng·h/mL)
Express your answer in ng·h/mL, writing the number without its unit.

(Q) Name the recorded AUC of the item Cn1cc(C2=C(c3coc4ccc(F)cc34)C(=O)NC2=O)c2cc3c(cc21)OCO3 in your answer.
(A) 7980

* * *

Assay: Phase 1 crossover PK study: oral solution fed/fasted vs IV infusion in healthy subjects
Assay type: in vivo, human
Conditions: human, plasma, iv, 3.3 mg/kg, IV infusion 3.3 mg/kg; read-out: Cmax LS Means
Method: This pharmacokinetic (PK) study in healthy subjects was conducted to characterize and compare the PK parameters in plasma following a single intravenous (IV) dose of Elraglusib Injection, Elraglusib Oral Solution after fasting, and Elraglusib Oral Solution after a high-fat meal (fed). […] PK parameters including AUC, Cmax, Tmax, and t1/2 were analyzed by standard non-compartmental analysis (NCA) methods following each of the elraglusib doses. […]
measure: Cmax
Param answer (str): number followed by unit.

(Q) Query Cmax for Cn1cc(C2=C(c3coc4ccc(F)cc34)C(=O)NC2=O)c2cc3c(cc21)OCO3
(A) 1590 ng/mL
